Consider the following compounds and their measured concentration at 1 h readings.
# assay protocol: In vivo PK, IV dose, Terminal - brain (brain availability)
# Parameters: species or system Rat (SD)
# assay context: SD, rat, brain, iv, 1 mg/kg, Rat (SD), 1 hr, read-out: Brain concentration, mean

Look over these answered cases.
CCCCCNC(=O)Nc1ccc2nc(-c3cccs3)c(-c3cccs3)nc2c1 [ADG-204] | 109 ng/g
O=C(Nc1ccc2nc(-c3cccs3)c(-c3cccs3)nc2c1)NC12CC3CC(CC(C3)C1)C2 [ADG-207] | 50.8 ng/g
CNC(=O)Nc1ccc2nc(-c3cccs3)c(-c3cccs3)nc2c1 [ADG-206] | 66.9 ng/g

Query: // returns reported concentration at 1 h for input COCCNC(=O)Nc1ccc2nc(-c3cccs3)c(-c3cccs3)nc2c1 [ADG-205c]
Result: 135 ng/g

====

Consider the following compounds and their measured concentration at 0.083 h readings.
# assay protocol: In vivo PK, IV dose, Terminal - brain (brain availability)
# Set-up: species or system Rat (SD)
# assay context: SD, rat, brain, iv, 1 mg/kg, Rat (SD), 0.083 hr

Look over these answered cases.
COCCNC(=O)Nc1ccc2nc(-c3cccs3)c(-c3cccs3)nc2c1 [ADG-205c] | 415 ng/g
CCCCCNC(=O)Nc1ccc2nc(-c3cccs3)c(-c3cccs3)nc2c1 | 487 ng/g
CNC(=O)Nc1ccc2nc(-c3cccs3)c(-c3cccs3)nc2c1 | 862 ng/g

Now examine the next entry.
Query: // returns reported concentration at 0.083 h for input O=C(Nc1ccc2nc(-c3cccs3)c(-c3cccs3)nc2c1)NC12CC3CC(CC(C3)C1)C2
Result: 192 ng/g

====

# System: H3K9ac
# assay protocol: Western blot, differentiated CAD cell lysates, H3K9ac levels
# Format: cell-based
# assay context: differentiated CAD cells, 5 uM; DMSO = 100.00%
Consider the following compounds and their measured H3K9ac levels normalized to H3 and DMSO control readings.
Write the number in % without appending the unit.

Look over these answered cases.
O=C(Nc1ccc2nc(-c3cccs3)c(-c3cccs3)nc2c1)NC12CC3CC(CC(C3)C1)C2 [ADG-207] | 63.69
CNC(=O)Nc1ccc2nc(-c3cccs3)c(-c3cccs3)nc2c1 [ADG-206] | 35.39
COCCNC(=O)Nc1ccc2nc(-c3cccs3)c(-c3cccs3)nc2c1 [ADG-205c] | 17.18

Query: // returns reported H3K9ac levels normalized to H3 and DMSO control for input CCCCCNC(=O)Nc1ccc2nc(-c3cccs3)c(-c3cccs3)nc2c1 [ADG-204]
Result: 13.48

====

# assay protocol: In vivo PK, IV dose, plasma
# Design: species or system Rat (SD)
# assay context: SD, rat, plasma, iv, 1 mg/kg, Rat, 0.0830 hr, terminal, third animal received only 70% of the test article, read-out: Plasma concentration, individual animal
observable: concentration at 0.083 h (ng/mL)
Write the number in ng/mL without appending the unit.

Query: // returns reported concentration at 0.083 h for input CCCCCNC(=O)Nc1ccc2nc(-c3cccs3)c(-c3cccs3)nc2c1
Result: 2220

====

Consider the following compounds and their measured log10 half-life at 2 μM readings.
# assay protocol: Microsomal stability assay (half-life), rat
# Format: in vitro ADME
# assay context: Rat (SD) microsomes, read-out: Microsomal stability T1/2
Give log10 of half-life at 2 μM, with half-life at 2 μM taken in min.

Look over these answered cases.
CCOc1ccc2ccc(=O)oc2c1 [7-Ethoxycoumarin, reference compound] | 0.79
CNC(=O)Nc1ccc2nc(-c3cccs3)c(-c3cccs3)nc2c1 | 0.80
CCCCCNC(=O)Nc1ccc2nc(-c3cccs3)c(-c3cccs3)nc2c1 | 2.37

Query: // returns reported log10 half-life at 2 μM for input O=C(Nc1ccc2nc(-c3cccs3)c(-c3cccs3)nc2c1)NC12CC3CC(CC(C3)C1)C2
Result: 0.74

Query: // returns reported log10 half-life at 2 μM for input COCCNC(=O)Nc1ccc2nc(-c3cccs3)c(-c3cccs3)nc2c1 [ADG-205c]
Result: 1.06

====

# assay protocol: In vivo PK, IV dose, plasma
# Set-up: species or system Rat (SD)
# assay context: SD, rat, plasma, iv, 1 mg/kg, Rat, 8.00 hr, terminal, BQL limit 1.00 ng/mL (ADG I-205: 2.00 ng/mL), read-out: Plasma concentration, individual animal
observable: concentration at 8 h

Query: // returns reported concentration at 8 h for input COCCNC(=O)Nc1ccc2nc(-c3cccs3)c(-c3cccs3)nc2c1 [ADG-205c]
Result: 28.5 ng/mL

Query: // returns reported concentration at 8 h for input CCCCCNC(=O)Nc1ccc2nc(-c3cccs3)c(-c3cccs3)nc2c1
Result: 3.92 ng/mL

Query: // returns reported concentration at 8 h for input O=C(Nc1ccc2nc(-c3cccs3)c(-c3cccs3)nc2c1)NC12CC3CC(CC(C3)C1)C2
Result: 1 ng/mL

====

# assay protocol: In vivo PK, oral gavage, plasma
# Set-up: species or system Rat (SD)
# assay context: SD, rat, plasma, po, 5 mg/kg, Rat, 1.00 hr, BQL limit 1.00 ng/mL, read-out: Plasma concentration, individual animal
Consider the following compounds and their measured concentration at 1 h readings.
Write the number in ng/mL without appending the unit.

CNC(=O)Nc1ccc2nc(-c3cccs3)c(-c3cccs3)nc2c1 | 5.47

Now examine the next entry.
Query: // returns reported concentration at 1 h for input COCCNC(=O)Nc1ccc2nc(-c3cccs3)c(-c3cccs3)nc2c1 [ADG-205c]
Result: 466
